# Procedure Text: PET imaging and biodistribution in SK-MEL-24 tumor-bearing mice
# Format: in vivo, mouse
# Conditions: mouse, lacrimal gland, intravenous; SK-MEL-24 in NSG mice; 20 μCi; 4 h; n=4; read-out: Biodistribution: Lac gl
Measured Parameter: tissue uptake at 4 h (%ID/g)
API: value field is a number in %ID/g; no unit string.

Look up tissue uptake at 4 h for this compound: N#C[C@@H]1CCCN1C(=O)CNC(=O)c1ccnc2ccc(OCCCNC(=O)CCc3cn(CCOCCOCCOCCOCCOCCOCCC(=O)N[C@@H](CCCCNC(=O)CN4CCN(CC(=O)O)CCN(CC(=O)O)CC4)C(=O)NCCCCC(=O)N(CCCC[C@H](NC(=O)N[C@@H](CCC(=O)O)C(=O)O)C(=O)O)Cc4ccc(Br)cc4)nn3)cc12
3.01

====

# Test system: U87 tumor
# Procedure Text: PET imaging and tissue biodistribution in U87 tumor-bearing mice
# Assay type: in vivo, mouse
# Conditions: untitled table; radiolabel and time not given; in %ID/g
Measured Parameter: Biodistribution: Lung

As a guide, the following entries are already answered.
# Compound, Subject Of Test, Recorded Result
measured = [
    ("N#CC1CCCN1C(=O)CNC(=O)c1ccnc2ccc(OCCCNC(=O)CCc3cn(CCCC[C@H](NC(=O)c4ccc(F)nc4)C(=O)NCCNC(=O)CN4CCN(CC(=O)O)CCN(CC(=O)O)CCN(CC(=O)O)CC4)nn3)cc12 (stereo partly drawn) [SRI-08-35]", "U87 tumor", "9.40 ± 1.61"),
    ("N#C[C@@H]1CCCN1C(=O)CNC(=O)c1ccnc2ccc(OCCCNC(=O)C(CCNC(=O)c3ccc(F)nc3)NC(=O)CN3CCN(CC(=O)O)CCN(CC(=O)O)CCN(CC(=O)O)CC3)cc12 (stereo partly drawn) [SRI-08-15]", "U87 tumor", "2.90 ± 0.24"),
]

Biodistribution: Lung of N#C[C@@H]1CCCN1C(=O)CNC(=O)c1ccnc2ccc(OCCCNC(=O)CCOCCOCCOCCNC(=O)C(CCNC(=O)c3ccc(F)nc3)NC(=O)CN3CCN(CC(=O)O)CCN(CC(=O)O)CCN(CC(=O)O)CC3)cc12 (stereo partly drawn) [SRI-08-27] on U87 tumor?
7.76 ± 1.31

====

# Procedure Text: PET imaging and biodistribution in SK-MEL-24 tumor-bearing mice
# Assay type: in vivo, mouse
# Conditions: mouse, lacrimal gland, intravenous; SK-MEL-24 in NSG mice; 20 μCi; 1 h; n=3; read-out: Biodistribution: Lac gl
Measured Parameter: tissue uptake at 1 h (%ID/g)
API: value field is a number in %ID/g; no unit string.

Look up tissue uptake at 1 h for this compound: N#C[C@@H]1CCCN1C(=O)CNC(=O)c1ccnc2ccc(OCCCNC(=O)CCc3cn(CCOCCOCCOCCOCCOCCOCCC(=O)N[C@@H](CCCCNC(=O)CN4CCN(CC(=O)O)CCN(CC(=O)O)CC4)C(=O)NCCCCC(=O)N(CCCC[C@H](NC(=O)N[C@@H](CCC(=O)O)C(=O)O)C(=O)O)Cc4ccc(Br)cc4)nn3)cc12
9.2

====

The following molecules are shown together with reported Biodistribution: Heart values.
# Tested on: U87 tumor
# Procedure Text: PET imaging and tissue biodistribution in U87 tumor-bearing mice
# Assay type: in vivo, mouse
# Conditions: untitled table; radiolabel and time not given; in %ID/g
Could you keep your reply to the number by itself?

Look up Biodistribution: Heart for this molecule: N#C[C@@H]1CCCN1C(=O)CNC(=O)c1ccnc2ccc(OCCCNC(=O)C(CCNC(=O)c3ccc(F)nc3)NC(=O)CN3CCN(CC(=O)O)CCN(CC(=O)O)CCN(CC(=O)O)CC3)cc12 (some centres unmarked)
1.97

Look up Biodistribution: Heart for this molecule: N#CC1CCCN1C(=O)CNC(=O)c1ccnc2ccc(OCCCNC(=O)CCc3cn(CCCC[C@H](NC(=O)c4ccc(F)nc4)C(=O)NCCNC(=O)CN4CCN(CC(=O)O)CCN(CC(=O)O)CCN(CC(=O)O)CC4)nn3)cc12 (some centres unmarked)
7.04

Look up Biodistribution: Heart for this molecule: N#C[C@@H]1CCCN1C(=O)CNC(=O)c1ccnc2ccc(OCCCNC(=O)CCOCCOCCOCCNC(=O)C(CCNC(=O)c3ccc(F)nc3)NC(=O)CN3CCN(CC(=O)O)CCN(CC(=O)O)CCN(CC(=O)O)CC3)cc12 (some centres unmarked)
5.39

Look up Biodistribution: Heart for this molecule: N#CC1CCCN1C(=O)CNC(=O)c1ccnc2ccc(OCCCNC(=O)CCc3cn(CC[C@H](NC(=O)c4ccc(F)nc4)C(=O)NCCNC(=O)CN4CCN(CC(=O)O)CCN(CC(=O)O)CCN(CC(=O)O)CC4)nn3)cc12 (some centres unmarked)
7.16

Look up Biodistribution: Heart for this molecule: N#C[C@@H]1CCCN1C(=O)CNC(=O)c1ccnc2ccc(OCCCN3CC4CN(C(=O)C(CCNC(=O)c5ccc(F)nc5)NC(=O)CN5CCN(CC(=O)O)CCN(CC(=O)O)CCN(CC(=O)O)CC5)CC4C3)cc12 (some centres unmarked)
2.24

====

# Test system: U87 tumor
# Procedure Text: PET imaging and tissue biodistribution in U87 tumor-bearing mice
# Assay type: in vivo, mouse
# Conditions: untitled table; radiolabel and time not given; in %ID/g
Measured Parameter: Biodistribution: Muscle
Could you keep your reply to the number by itself?

As a guide, the following entries are already answered.
# Compound, Subject Of Test, Recorded Result
rows = [
    ("N#C[C@@H]1CCCN1C(=O)CNC(=O)c1ccnc2ccc(OCCCNC(=O)C(CCNC(=O)c3ccc(F)nc3)NC(=O)CN3CCN(CC(=O)O)CCN(CC(=O)O)CCN(CC(=O)O)CC3)cc12 (some centres unmarked)", "U87 tumor", 3.03),
    ("N#CC1CCCN1C(=O)CNC(=O)c1ccnc2ccc(OCCCNC(=O)CCc3cn(CC[C@H](NC(=O)c4ccc(F)nc4)C(=O)NCCNC(=O)CN4CCN(CC(=O)O)CCN(CC(=O)O)CCN(CC(=O)O)CC4)nn3)cc12 (some centres unmarked)", "U87 tumor", 2.06),
    ("N#C[C@@H]1CCCN1C(=O)CNC(=O)c1ccnc2ccc(OCCCN3CC4CN(C(=O)C(CCNC(=O)c5ccc(F)nc5)NC(=O)CN5CCN(CC(=O)O)CCN(CC(=O)O)CCN(CC(=O)O)CC5)CC4C3)cc12 (some centres unmarked)", "U87 tumor", 2.74),
    ("N#C[C@@H]1CCCN1C(=O)CNC(=O)c1ccnc2ccc(OCCCNC(=O)CCOCCOCCOCCNC(=O)C(CCNC(=O)c3ccc(F)nc3)NC(=O)CN3CCN(CC(=O)O)CCN(CC(=O)O)CCN(CC(=O)O)CC3)cc12 (some centres unmarked)", "U87 tumor", 1.55),
]

Look up Biodistribution: Muscle for this compound: N#CC1CCCN1C(=O)CNC(=O)c1ccnc2ccc(OCCCNC(=O)CCc3cn(CCCC[C@H](NC(=O)c4ccc(F)nc4)C(=O)NCCNC(=O)CN4CCN(CC(=O)O)CCN(CC(=O)O)CCN(CC(=O)O)CC4)nn3)cc12 (some centres unmarked)
1.94

====

# Subject Of Test: PSMA (Homo sapiens (Human))
# Sequence (Q04609 whole entry): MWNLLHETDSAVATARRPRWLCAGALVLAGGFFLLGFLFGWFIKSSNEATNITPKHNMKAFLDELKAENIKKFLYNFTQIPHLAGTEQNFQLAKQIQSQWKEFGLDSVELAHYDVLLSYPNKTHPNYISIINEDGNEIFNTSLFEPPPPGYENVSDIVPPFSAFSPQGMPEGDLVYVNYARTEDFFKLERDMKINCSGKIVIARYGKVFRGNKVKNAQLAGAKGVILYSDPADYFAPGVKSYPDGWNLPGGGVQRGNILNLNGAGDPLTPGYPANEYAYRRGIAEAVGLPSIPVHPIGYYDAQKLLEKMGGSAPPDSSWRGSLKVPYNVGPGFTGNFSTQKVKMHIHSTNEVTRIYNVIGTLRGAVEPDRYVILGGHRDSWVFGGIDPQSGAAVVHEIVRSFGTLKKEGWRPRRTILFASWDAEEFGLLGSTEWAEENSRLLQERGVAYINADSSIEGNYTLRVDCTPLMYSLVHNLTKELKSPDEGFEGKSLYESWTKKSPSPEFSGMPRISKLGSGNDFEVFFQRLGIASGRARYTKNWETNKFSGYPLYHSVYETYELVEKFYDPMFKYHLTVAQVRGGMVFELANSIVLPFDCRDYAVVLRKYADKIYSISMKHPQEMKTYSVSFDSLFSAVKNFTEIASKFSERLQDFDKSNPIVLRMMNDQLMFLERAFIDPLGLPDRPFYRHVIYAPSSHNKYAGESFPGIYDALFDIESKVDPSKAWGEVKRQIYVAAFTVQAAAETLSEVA
# Procedure Text: PSMA competitive inhibition assay (NAAG substrate, LNCaP cell lysate)
# Conditions: Table 4
The following compounds are shown together with reported IC50 values.
API: value field is a number in nM; no unit string.

Look up IC50 for this compound: N#C[C@@H]1CCCN1C(=O)CNC(=O)c1ccnc2ccc(OCCCNC(=O)CCc3cn(CCOCCOCCOCCC(=O)N[C@@H](CCCCNC(=O)CCC(C(=O)O)N4CCN(CC(=O)O)CCN(CC(=O)O)CCN(CC(=O)O)CC4)C(=O)NCCCCC(=O)N(CCCC[C@H](NC(=O)N[C@@H](CCC(=O)O)C(=O)O)C(=O)O)Cc4ccc(Br)cc4)nn3)cc12 (some centres unmarked) [SB-FAP-03]
14.5

Look up IC50 for this compound: N#C[C@@H]1CCCN1C(=O)CNC(=O)c1ccnc2ccc(OCCCNC(=O)CCc3cn(CCOCCOCCOCCC(=O)N[C@@H](CCCCNC(=O)CN4CCN(CC(=O)O)CCN(CC(=O)O)CC4)C(=O)NCCCCC(=O)N(CCCC[C@H](NC(=O)N[C@@H](CCC(=O)O)C(=O)O)C(=O)O)Cc4ccc(Br)cc4)nn3)cc12 [SB-FAP-02]
90

====

# System: U87 tumor
# Procedure Text: PET imaging and tissue biodistribution in U87 tumor-bearing mice
# Format: in vivo, mouse
# Conditions: untitled table; radiolabel and time not given; in %ID/g
# Experimental: Cell uptake assays, flow cytometry, and IHC were performed as described previously. Banerjee et al., 2019; Nimmagadda et al., 2018. PET imaging and biodistribution Sequential PET imaging and biodistribution studies were conducted to quantify and validate PET imaging data. Briefly, tumor-bearing mice were administrated approximately 7.4 MBq of radiotracer in 150 μL saline via tail-vein injection. They were randomized into the indicated groups of 3-4 mice before radiotracer injection. […]
Lab note: compare Biodistribution: Blood against 10. Equal or greater, write Satisfied. Smaller, write Not satisfied.

Worked set:
# Compound, Cat
data = [
    ("N#C[C@@H]1CCCN1C(=O)CNC(=O)c1ccnc2ccc(OCCCNC(=O)CCOCCOCCOCCNC(=O)C(CCNC(=O)c3ccc(F)nc3)NC(=O)CN3CCN(CC(=O)O)CCN(CC(=O)O)CCN(CC(=O)O)CC3)cc12 (some centres unmarked)", "Satisfied"),
    ("N#CC1CCCN1C(=O)CNC(=O)c1ccnc2ccc(OCCCNC(=O)CCc3cn(CC[C@H](NC(=O)c4ccc(F)nc4)C(=O)NCCNC(=O)CN4CCN(CC(=O)O)CCN(CC(=O)O)CCN(CC(=O)O)CC4)nn3)cc12 (some centres unmarked)", "Satisfied"),
    ("N#C[C@@H]1CCCN1C(=O)CNC(=O)c1ccnc2ccc(OCCCN3CC4CN(C(=O)C(CCNC(=O)c5ccc(F)nc5)NC(=O)CN5CCN(CC(=O)O)CCN(CC(=O)O)CCN(CC(=O)O)CC5)CC4C3)cc12 (some centres unmarked)", "Not satisfied"),
]

Quick check: does N#C[C@@H]1CCCN1C(=O)CNC(=O)c1ccnc2ccc(OCCCNC(=O)C(CCNC(=O)c3ccc(F)nc3)NC(=O)CN3CCN(CC(=O)O)CCN(CC(=O)O)CCN(CC(=O)O)CC3)cc12 (some centres unmarked) have Biodistribution: Blood greater than or equal to 10?
Not satisfied

Quick check: does N#CC1CCCN1C(=O)CNC(=O)c1ccnc2ccc(OCCCNC(=O)CCc3cn(CCCC[C@H](NC(=O)c4ccc(F)nc4)C(=O)NCCNC(=O)CN4CCN(CC(=O)O)CCN(CC(=O)O)CCN(CC(=O)O)CC4)nn3)cc12 (some centres unmarked) have Biodistribution: Blood greater than or equal to 10?
Satisfied
